// cross-source set; read-out = log10 Ki; system = Histamine H3 receptor (Homo sapiens, UniProt Q9Y5N1)
readout: log10 Ki (log10 of the value in nM)

>>> print(df.to_string())
                                   compound                         target_under_test   readout  value_measured
0  O=C(c1ccc(C(O)c2ccccc2)cc1)N1CCN(C2CCC2)CC1 (stereo not drawn)  Histamine H3 receptor (Homo sapiens, UniProt Q9Y5N1)  log10 Ki            0.60
1  COc1ccc(C2CN(C)Cc3cc(OCC4CCN(CC(C)C)CC4)ccc32)c(F)c1 (stereo not drawn)  Histamine H3 receptor (Homo sapiens, UniProt Q9Y5N1)  log10 Ki            1.00
2   c1cc(CN2CCCCC2)cc(N2CCC(CN3CCCC3)CC2)c1  Histamine H3 receptor (Homo sapiens, UniProt Q9Y5N1)  log10 Ki            1.00
3  O=[N+]([O-])c1cc(CN2CCCCC2)ccc1Sc1ccc(N2CCCCC2)cc1  Histamine H3 receptor (Homo sapiens, UniProt Q9Y5N1)  log10 Ki            2.88
4        C(#Cc1cncc(CN2CCOCC2)c1)CCN1CCCCC1  Histamine H3 receptor (Homo sapiens, UniProt Q9Y5N1)  log10 Ki            1.18
5  C(=C\c1nc2ccccc2o1)/c1ccc(OCCCCN2CCCCC2)cc1  Histamine H3 receptor (Homo sapiens, UniProt Q9Y5N1)  log10 Ki            1.53

---

// cross-source set; read-out = Ki; system = Histamine H3 receptor (Homo sapiens)
readout: Ki

In [3]: df
Out[3]:
                                    compound  value_measured
 0  Clc1ccc(C(=C2CCN(CCCCCc3c[nH]cn3)CC2)c2ccccn2)cc1            8 nM
 1  C[C@@H]1CCCN1CCCOc1ccc(C(=O)CN2CCC(C(F)(F)F)CC2)cc1   0.1 to 100 nM
 2   COCCc1cc2ccccc2n1-c1ccc(OCCCN2CCCC2)cc1         < 10 nM
 3  COc1ccc(C2CN(C)Cc3cc(OC4CCN(C(C)C)CC4)ccc32)cc1F (stereo not drawn)            1 nM
 4   CNC(=N)SCc1ccc(Oc2ccc(CSC(=N)NC)cc2)cc1          629 nM
 5  O=C(c1ccc(C(O)c2ccccc2)cc1)N1CCCN(C2CCC2)CC1 (stereo not drawn)            1 nM
 6  O=C(CN1Cc2ccccc2C1)c1ccc(OCCCN2CCCCC2)cc1   0.1 to 100 nM
 7  CC(C)N1CCC(Oc2ccc(C(=O)CN3CCCC(F)(F)C3)cc2)CC1   0.1 to 100 nM
 8  OC1CCN(Cc2ccc(N3CCC(CN4CCCC4)CC3)cc2)CC1            5 nM
 9  O=C(c1ccc(-c2ccc(=O)n(-c3ccc(F)cc3)n2)cc1)N1CCC[C@H]1CN1CCCC1        < 100 nM
10  COC(=O)N1CCN(CC(=O)c2ccc(OCCCN3CCC[C@H]3C)c(C)c2)CC1   0.1 to 100 nM
11       c1cc(-c2ccc(CN3CCCC3)s2)sc1CN1CCCC1          1.4 nM
12  COc1ccc(C2CN(C)Cc3cc(OCCCNC4CC4)ccc32)cc1 (stereo not drawn)           18 nM
13         CN(C)CCCOc1ccc(-c2cn3ccccc3n2)cc1          119 nM
14  COc1ccc(C2CN([C@H](C)c3ccccc3)Cc3cc(OCCCN4CCOCC4)ccc32)cc1 (single isomer, unassigned)           14 nM
15  COc1cccc(C2CN(C)Cc3cc(OCC4CCN(C)CC4)ccc32)c1 (stereo not drawn)            2 nM
16  CCN(CC)CCOc1ccc(-c2cc3ccccc3n2S(C)(=O)=O)cc1          369 nM
17  CC(C)N1CCN(C(=O)c2ccc(C(CCN(C)C)Oc3ccc(Cl)c(Cl)c3)cc2)CC1 (stereo not drawn)            2 nM

---

// cross-source set; read-out = pKi; system = Histamine H3 receptor (Homo sapiens)
pKi: −log10 of the molar value.
readout: pKi

>>> df
                                   molecule                     target_under_test  value_operator  value_measured
0  CN1Cc2cc(OCCCN3CCOCC3)ccc2C(c2ccc(SC(F)(F)F)cc2)C1 (stereo not drawn)  Histamine H3 receptor (Homo sapiens)               =            7.42
1  CCCN(CCC)CCCOc1ccc(-c2cn3cccc(C)c3n2)cc1C  Histamine H3 receptor (Homo sapiens)               =            7.85
2     c1cc(N2CCC(N3CCOCC3)CC2)ccc1CN1CCOCC1  Histamine H3 receptor (Homo sapiens)               =            6.57
3  CN(C)CCC(Oc1ccc(C#CCCN2CCCCC2)cc1)c1ccc(F)cc1 (stereo not drawn)  Histamine H3 receptor (Homo sapiens)               =            6.44
4  COc1ccc(C2CN(C)Cc3cc(OCCCN4CCC(C#N)CC4)ccc32)cc1 (racemic)  Histamine H3 receptor (Homo sapiens)               =            8.05
5  COc1ccc(C2CNCc3cc(OCCCN4CCOCC4)ncc32)cc1 (stereo not drawn)  Histamine H3 receptor (Homo sapiens)               =            7.37
6  O=C1CCC(c2ccc3c(c2)CCN(C2CCC2)CC3)=NN1CC(F)(F)F  Histamine H3 receptor (Homo sapiens)               >            7.00

---

// cross-source set; read-out = Ki; system = Histamine H3 receptor (Homo sapiens)
readout: Ki (nM)

>>> df
                                   compound                     target_under_test  readout  value_measured
0  CN(C)CCC(Oc1ccc2[nH]ccc2c1)c1ccc(OCCCN2CCCCC2)cc1 (stereo not drawn)  Histamine H3 receptor (Homo sapiens)       Ki               1
1          CC(C)N1CCN(C(=O)c2ccc(CO)cc2)CC1  Histamine H3 receptor (Homo sapiens)       Ki             164
2  COc1ccc(C2CN(C)Cc3cc(OCCCN(C4CC4)C4CC4)ccc32)cc1 (stereo not drawn)  Histamine H3 receptor (Homo sapiens)       Ki               6
3  O=C(c1ccc(Cc2ccccc2)cc1)N1CCN(C2CCC2)CC1  Histamine H3 receptor (Homo sapiens)       Ki               7
4  CC(C)C(O)c1ccc(C(=O)N2CCN(C(C)C)CC2)cc1 (stereo not drawn)  Histamine H3 receptor (Homo sapiens)       Ki               6
5  CN(C)CCC(Oc1ccc(C(F)(F)F)cc1)c1ccc(C#CCCN2CCCCC2)cc1 (stereo not drawn)  Histamine H3 receptor (Homo sapiens)       Ki               9
6  COc1ccc(C2CN(C)Cc3cc(OCCCN4CCN(CC5OCCO5)CC4)ccc32)cc1 (stereo not drawn)  Histamine H3 receptor (Homo sapiens)       Ki              78
7  FC(F)(F)c1cc(CN2CCC(N3CCCC3)CC2)ccc1N1CCC(CN2CCCC2)CC1  Histamine H3 receptor (Homo sapiens)       Ki               9

---

pKi: −log10 of the molar value.
// cross-source set; read-out = pKi; system = Histamine H3 receptor (Homo sapiens)
readout: pKi

In [3]: df
Out[3]:
                                   compound  readout  value_measured
0  CCOC(=O)N1CCN(c2ccc(C(=O)N3CCN(C(C)C)CC3)cn2)CC1      pKi            7.10
1   CC(C)(O)c1ccc(C(=O)N2CCN(C3CCC3)CC2)cc1      pKi            7.49
2  Cc1ccn2cc(-c3ccc(OCCCN4CCCCC4)cc3F)nc2c1      pKi            8.00
3  COc1ccc(C2CN(C)Cc3cc(C#CCCN4CCSCC4)ccc32)cc1 (centres unmarked)      pKi            7.35
4  COCCCS(=O)(=O)c1ccc(-c2ccc(CCN3CCC[C@H]3C)cc2)cc1      pKi            8.27

---

// cross-source set; read-out = Ki; system = Histamine H3 receptor (Homo sapiens, UniProt Q9Y5N1)
readout: Ki (nM)

In [3]: df
Out[3]:
                                   molecule  readout_units  value_operator  value_measured
0  CCCN1CCC(COc2ccc3c(c2)CN(C)CC3c2ccc(OC)c(F)c2)CC1 (stereo not drawn)             nM               =               9
1  O=C1CCC(c2ccc3c(c2)CCN(C2CCC2)CC3)=NN1CCO             nM               <             100
2  COc1ccc(C2CN(C)Cc3cc(OCC4CCN(C(C)C)CC4)ccc32)cc1F (stereo not drawn)             nM               =               2
3  Nc1ncc(CN2CCC(F)(C(=O)N3CCC(n4c(-c5ccccn5)nc5cccnc54)CC3)CC2)cn1             nM               =               9
4           CCCCN1CCN(C(=O)c2ccc(CO)cc2)CC1             nM               =              55
5   CNCc1cc(C#CCCN2CCOCC2)ccc1Sc1ccc(Cl)cc1             nM               =              32
6   O=C(c1ccc(C2CCCCC2)cc1)N1CCN(C2CCC2)CC1             nM               =               9
